# method.summary: Biodistribution of Al^18F(IMP485) alone or TF2 pretargeted
# reported.conditions: nude, mouse, in vivo, iv, 28 uCi, total radioactivity, % ID/g Spleen, alone, 3 h post injection
# Protocol: Mice were necropsied at 1 and 3 h post injection, 7 mice per time point. Biodistribution studies were performed in Taconic nude mice bearing subcutaneous LS174T tumor xenografts. Mice were necropsied at 1 and 3 h post injection, 6 mice per time point.

molecule	tissue uptake at 3 h [%ID/g]
NC(=O)[C@@H](CCCCNC(=O)CNC(=O)CCC(=O)NCCc1c[nH]cn1)NC(=O)[C@@H](Cc1ccc(O)cc1)NC(=O)[C@@H](CCCCNC(=O)CNC(=O)CCC(=O)NCCc1c[nH]cn1)NC(=O)Cc1ccc(CN2CCN(CC(=O)O)CCN(CC(=O)O)CC2)cc1 [Al^18F(IMP485)]	0.065

---

# method.summary: Biodistribution of Al^18F(IMP485) alone or TF2 pretargeted
# reported.conditions: nude (Taconic), mouse, in vivo, iv, 28 uCi, total radioactivity, % ID/org Spleen, alone, 1 h post injection

compound	tissue uptake dose at 1 h / %ID
NC(=O)[C@@H](CCCCNC(=O)CNC(=O)CCC(=O)NCCc1c[nH]cn1)NC(=O)[C@@H](Cc1ccc(O)cc1)NC(=O)[C@@H](CCCCNC(=O)CNC(=O)CCC(=O)NCCc1c[nH]cn1)NC(=O)Cc1ccc(CN2CCN(CC(=O)O)CCN(CC(=O)O)CC2)cc1 [Al^18F(IMP485)]	0.018

---

# method.summary: Biodistribution of Al^18F(IMP485) alone or TF2 pretargeted
# reported.conditions: nude, mouse, in vivo, iv, 28 uCi, total radioactivity, % ID/org Spleen, alone, 3 h post injection

molecule	tissue uptake dose at 3 h (%ID)
NC(=O)[C@@H](CCCCNC(=O)CNC(=O)CCC(=O)NCCc1c[nH]cn1)NC(=O)[C@@H](Cc1ccc(O)cc1)NC(=O)[C@@H](CCCCNC(=O)CNC(=O)CCC(=O)NCCc1c[nH]cn1)NC(=O)Cc1ccc(CN2CCN(CC(=O)O)CCN(CC(=O)O)CC2)cc1 [Al^18F(IMP485)]	0.006

---

# method.summary: Biodistribution of Al^18F(IMP485) alone or TF2 pretargeted
# reported.conditions: nude, mouse, in vivo, iv, 28 uCi, total radioactivity, % ID/org Liver, alone, 3 h post injection

compound	tissue uptake dose at 3 h / %ID
NC(=O)[C@@H](CCCCNC(=O)CNC(=O)CCC(=O)NCCc1c[nH]cn1)NC(=O)[C@@H](Cc1ccc(O)cc1)NC(=O)[C@@H](CCCCNC(=O)CNC(=O)CCC(=O)NCCc1c[nH]cn1)NC(=O)Cc1ccc(CN2CCN(CC(=O)O)CCN(CC(=O)O)CC2)cc1 [Al^18F(IMP485)]	0.114

---

# method.summary: Biodistribution of Al^18F(IMP485) alone or TF2 pretargeted
# reported.conditions: nude, mouse, in vivo, iv, 28 uCi, total radioactivity, % ID/org Sm. Int., alone, 3 h post injection

compound	units.text	tissue uptake dose at 3 h
NC(=O)[C@@H](CCCCNC(=O)CNC(=O)CCC(=O)NCCc1c[nH]cn1)NC(=O)[C@@H](Cc1ccc(O)cc1)NC(=O)[C@@H](CCCCNC(=O)CNC(=O)CCC(=O)NCCc1c[nH]cn1)NC(=O)Cc1ccc(CN2CCN(CC(=O)O)CCN(CC(=O)O)CC2)cc1 [Al^18F(IMP485)]	%ID	0.119

---

# method.summary: Biodistribution of Al^18F(IMP485) alone or TF2 pretargeted
# reported.conditions: Taconic nude, mouse, in vivo, iv

molecule	tissue uptake at 3 h / %ID/g
NC(=O)[C@@H](CCCCNC(=O)CNC(=O)CCC(=O)NCCc1c[nH]cn1)NC(=O)[C@@H](Cc1ccc(O)cc1)NC(=O)[C@@H](CCCCNC(=O)CNC(=O)CCC(=O)NCCc1c[nH]cn1)NC(=O)Cc1ccc(CN2CCN(CC(=O)O)CCN(CC(=O)O)CC2)cc1 [Al^18F(IMP485)]	0.353

---

# method.summary: Biodistribution of Al^18F(IMP485) alone or TF2 pretargeted
# reported.conditions: nude (Taconic), mouse, in vivo, iv, 28 uCi, total radioactivity, % ID/org Liver, alone, 1 h post injection

molecule	tissue uptake dose at 1 h / %ID
NC(=O)[C@@H](CCCCNC(=O)CNC(=O)CCC(=O)NCCc1c[nH]cn1)NC(=O)[C@@H](Cc1ccc(O)cc1)NC(=O)[C@@H](CCCCNC(=O)CNC(=O)CCC(=O)NCCc1c[nH]cn1)NC(=O)Cc1ccc(CN2CCN(CC(=O)O)CCN(CC(=O)O)CC2)cc1 [Al^18F(IMP485)]	0.22

---

# method.summary: in vivo
# reported.conditions: nude (Taconic), mouse, in vivo, iv, total radioactivity, % ID/g Scapula
quantity.measured: tissue uptake at 3 h (%ID/g)

molecule	quantity.measured	value.reported
NC(=O)[C@@H](CCCCNC(=O)CNC(=O)CCC(=O)NCCc1c[nH]cn1)NC(=O)[C@@H](Cc1ccc(O)cc1)NC(=O)[C@@H](CCCCNC(=O)CNC(=O)CCC(=O)NCCc1c[nH]cn1)NC(=O)Cc1ccc(CN2CCN(CC(=O)O)CCN(CC(=O)O)CC2)cc1 [Al^18F(IMP485)]	tissue uptake at 3 h	0.058

---

# method.summary: in vivo
# reported.conditions: Taconic nude, mouse, in vivo, iv, % ID/org Spleen

compound	units.text	tissue uptake dose at 1 h
NC(=O)[C@@H](CCCCNC(=O)CNC(=O)CCC(=O)NCCc1c[nH]cn1)NC(=O)[C@@H](Cc1ccc(O)cc1)NC(=O)[C@@H](CCCCNC(=O)CNC(=O)CCC(=O)NCCc1c[nH]cn1)NC(=O)Cc1ccc(CN2CCN(CC(=O)O)CCN(CC(=O)O)CC2)cc1 [Al^18F(IMP485)]	%ID	0.02

Just for reference, patent US20160199524A1 is where these values come from.
